Tested on: secretion of cytokine IL-8 in the human monocyte cell line THP-1
Assay: inhibition of LPS-triggered IL-8 secretion in THP-1 cells
Format: cell-based
Set-up: concentration or dose not given beside the values
Conditions Used: ELISA of supernatant
# key: entry, value: Inhibition of IL-8 Secretion Effectiveness
Readout: Inhibition of IL-8 Secretion Effectiveness (%)

[
  {
    "Molecule": "Cc1noc(=O)c2ccc(NC(=O)C(O)(CC3(c4cc(F)ccc4C(F)(F)F)CCC3)C(F)(F)F)cc12 (single isomer, unassigned; (+))",
    "Unit Info": "%",
    "Value": 45
  },
  {
    "Molecule": "Cc1noc(=O)c2ccc(NC(=O)C(O)(CC3(c4cc(F)ccc4Cl)CCC3)C(F)(F)F)cc12 (single isomer, unassigned; (+))",
    "Unit Info": "%",
    "Value": 80
  },
  {
    "Molecule": "Cc1noc(=O)c2ccc(NC(=O)C(O)(CC(C)(C)c3ccc(F)cc3Cl)C(F)(F)F)cc12 (single isomer, unassigned; (+))",
    "Unit Info": "%",
    "Value": 51
  },
  {
    "Molecule": "Cc1noc(=O)c2ccc(NC(=O)C(O)(CC3(c4cc(F)ccc4Cl)CC3)C(F)(F)F)cc12 (single isomer, unassigned; (+))",
    "Unit Info": "%",
    "Value": 58
  },
  {
    "Molecule": "Cc1noc(=O)c2ccc(NC(=O)C(O)(CC3(c4ccccc4C(F)(F)F)CCC3)C(F)(F)F)cc12 (single isomer, unassigned; (+))",
    "Unit Info": "%",
    "Value": 77
  },
  {
    "Molecule": "C[C@]12C=CC(=O)C=C1CC[C@@H]1[C@@H]2[C@@H](O)C[C@@]2(C)[C@H]1CC[C@]2(O)C(=O)CO [Prednisolone, reference compound]",
    "Unit Info": "%",
    "Value": 95
  }
]
